Attribution: ChEMBL document CHEMBL2380272

# viability at 24 h, 180 µM per entry
Experimental details: Cytotoxicity against human HepG2/C3A cells assessed as cell viability at 180 uM after 24 hrs by neutral red uptake assay relative to control
Format: cell-based
Condition context: read-out: Activity
All answers are understood in %, so give the number only.

Known viability at 24 h, 180 µM results, listed for orientation:
{"columns": ["Query smiles", "viability at 24 h, 180 µM (%)"],
 "data": [
  ["O=Cc1ccc(OCCCCCCCCOc2ccc(C=O)cc2)cc1", 69],
  ["O=Cc1ccc(OCOc2ccc(C=O)cc2)cc1", 78.6],
  ["O=Cc1ccc(OCCCCCCCCCCOc2ccc(C=O)cc2)cc1", 72.8],
  ["O=Cc1ccc(OCCCOc2ccc(C=O)cc2)cc1", 77.4],
  ["O=Cc1ccc(OCCCCCCOc2ccc(C=O)cc2)cc1", 59.3],
  ["O=Cc1ccc(OCCCCCOc2ccc(C=O)cc2)cc1", 45.6]
]}

Then there is this compound:
q: What value of measured viability at 24 h, 180 µM is listed for `O=Cc1ccc(OCCCCCCCCCCCCOc2ccc(C=O)cc2)cc1` ?
a: 68.1
